experiment: viability gain of MRP-1-high H69AR cells under doxorubicin, pilot screen, MRP-1 activator project, CellTiter-Glo, duplicate (AID 807); details: H69AR viability with doxorubicin, CellTiter-Glo luminescence; at 10 µM; stronger effect = higher value;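 note: compound pretreatment 18-22 h then 72 h combined with doxorubicin; 0% = doxorubicin alone and 100% = vehicle without doxorubicin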
Documented viability increase across a set of compounds

- Compound: "CN1CCN(Cc2c(O)ccc3occ(C(=O)c4ccccc4)c23)CC1"
  viability increase [%]: -4
- Compound: "CN1CCCCc2c1[nH]c1ccccc1c2=O"
  viability increase [%]: -3.35
- Compound: "Cc1ccc(NC(=O)c2cc(NC(=O)C3CC=CCC3C(=O)O)ccc2N2CCOCC2)cc1 (centres undefined)"
  viability increase [%]: -3.64
- Compound: "COc1cccc(C(=O)Nc2nnc(-c3ccc(Cl)cc3)o2)c1"
  viability increase [%]: -3.33
- Compound: "O=C(CSc1ccc2nnc(-c3ccc(F)cc3)n2n1)N1CCOCC1"
  viability increase [%]: -2.97
- Compound: "CS(=O)(=O)N1Cc2ccccc2CC1C(=O)Nc1ccccc1C(N)=O (centres undefined)"
  viability increase [%]: -1.04
- Compound: "Cc1ccc(Cc2cnc(N)s2)o1"
  viability increase [%]: -5.06
- Compound: "COc1ccc(Cl)cc1Nc1cc(C)nc2nc(C)nn12"
  viability increase [%]: -3.12
- Compound: "O=C(CC1(O)C(=O)Nc2ccccc21)c1ccccc1 (centres undefined)"
  viability increase [%]: -3.28
- Compound: "Cc1cc(NS(=O)(=O)c2ccc(NC(=O)c3cnc4scc(C)n4c3=O)cc2)nc(C)n1"
  viability increase [%]: -2.16
- Compound: "COc1ccc(C)cc1NC(=O)Cn1cnc2sc(C)c(S(=O)(=O)N3CCOCC3)c2c1=O"
  viability increase [%]: -1.23
- Compound: "CC12CN3CC(C)(CN(C1)C3c1ccc(Br)cc1)C2=O (centres undefined)"
  viability increase [%]: -2.12
- Compound: "O=C(CSc1oc(-c2ccc(F)cc2)nc1S(=O)(=O)c1ccc(F)cc1)NCC1CCCO1 (centres undefined)"
  viability increase [%]: -7.22
- Compound: "CC1Cc2ccccc2N1C(=O)c1ccc2snnc2c1 (centres undefined)"
  viability increase [%]: -3.96
- Compound: "CCOC(=O)c1nnn(-c2nonc2N)c1COc1ccccc1"
  viability increase [%]: -2.43
- Compound: "CC(=O)c1sc2ccccc2c1OC(=O)c1ccco1"
  viability increase [%]: -4.46
- Compound: "Cc1cccc(-n2ncc3c(N(C)Cc4ccccc4)ncnc32)c1"
  viability increase [%]: 5.35
- Compound: "Oc1ccc(C=NCC2COc3ccccc3O2)cc1 (centres undefined)"
  viability increase [%]: -5.39
- Compound: "CCOC(=O)c1cc(-c2ccc(C)o2)nn1CCC#N"
  viability increase [%]: 0.21
- Compound: "O=C(Nc1ccc(F)cc1F)N1CCN(c2ncccn2)CC1"
  viability increase [%]: -0.19
- Compound: "Cn1cnnc1SCC(=O)c1ccco1"
  viability increase [%]: -1.08
- Compound: "CCOC(=O)c1cc2c(=O)n3cccc(C)c3nc2n(CCCOC)c1=NC(=O)c1cccnc1"
  viability increase [%]: -4.94
- Compound: "O=C1c2ccccc2C(=O)N1CCCc1nc2ccccc2c(=O)n1-c1cccnc1"
  viability increase [%]: -3.29
- Compound: "O=C(NCCCN1CCCCC1)C1(S(=O)(=O)c2ccc(Cl)cc2)CC1"
  viability increase [%]: -1.07

----------
assay: reducers of endogenous Her2 protein level, primary screen, SKBR3 breast tumor cells, AlphaScreen, ATP viability (AID 461); settings: 18-24 h, measured here: SKBR3 viability, ATP luminescence, at 10 µM;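 note: percent of carrier control wells set as 100% viability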
Documented viability across a set of compounds
Measurement Type: viability (%)

- Compound: "CCN(CC)CCn1c2ccccc2c2nc(C)sc21"
  Result: 113
- Compound: "O=C(C1CCN(S(=O)(=O)c2cccnc2)CC1)N1CCN(c2ccc(Cl)cc2)CC1"
  Result: 84
- Compound: "O=C1CC(N2CCOCC2)C(=O)N1c1ccc2c(c1)OCO2 (stereo unspecified)"
  Result: 102
- Compound: "CCOc1ccc(NC(=O)CN(C)CC(=O)NC2CCCc3ccccc32)cc1OCC (stereo unspecified)"
  Result: 83
- Compound: "CN1CCN(C(=O)CCC(=O)c2ccc(F)cc2)CC1"
  Result: 114
- Compound: "CN1Cc2c(N)cccc2C(c2ccccc2)C1 (stereo unspecified)"
  Result: 81

----------
Documented inhibition across a set of compounds
test: growth suppression of yeast trafficking mutant, preliminary HTS, modulators of trafficking downstream of Golgi apparatus project, 1536-format plate, OD 615 nm (AID 637); conditions: yeast transport mutant growth, absorbance 615 nm, 18 h; stronger effect = higher value
Measurement Type: inhibition (%)

- Compound: "CCN(CC)Cc1csc(C(N)=O)c1"
  Result: 0.32
- Compound: "O=C1C2CC=CCC2C(=O)N1c1ccc(Cc2ccncc2)cc1 (stereo unspecified)"
  Result: -5.74
- Compound: "COc1ccc(C)cc1S(=O)(=O)N1CCN(Cc2ccccc2)CC1"
  Result: 1.13
- Compound: "O=C(c1ccc2c(c1)OCO2)N1CCCN(C(=O)c2ccc3c(c2)OCO3)CC1"
  Result: -1.97
- Compound: "CC(=O)N(C(C)=O)c1c(C#N)c(C)n(-c2ccccc2)c1C(=O)c1ccccc1"
  Result: -2.58
- Compound: "CC(C)(C)C(=O)Cn1c(=N)n(Cc2ccccc2)c2ccccc21"
  Result: -2.3
- Compound: "CN(C)C(=O)CSc1nnc([C@H](Cc2c[nH]c3ccccc23)NC(=O)OC(C)(C)C)o1"
  Result: 5.57
- Compound: "CCOC(=O)c1c(C)oc2ccc(OCC(=O)N(CC)CC)cc12"
  Result: -0.32
- Compound: "CN1CCN(C(=O)CCC(=O)c2ccc(F)cc2)CC1"
  Result: -3.77
- Compound: "O=C(C1CCCN(S(=O)(=O)c2cnc[nH]2)C1)N1CCN(c2ccc(Cl)cc2)CC1 (stereo unspecified)"
  Result: -4.92
- Compound: "CCCn1c(-c2ccc(F)cc2)cnc1SCC(=O)O"
  Result: 2.79

----------
experiment: growth suppression of PTEN-deleted HCT116, pilot screen, cell-based, HCT116 clonal line, CellTiter-Glo (AID 824); conditions: 60 h, at 10 µM, stronger effect = lower value;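 note: 0% = 20 µM Hyamine control and 100% = vehicle cell control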
Records with an inconclusive call do not appear.
Hi! Just check whether viability is below 90%. Below gives 1, equal or above gives -1.

- Compound: "COc1ccc(CNC(=O)c2cnc3scc(C)n3c2=O)cc1"
  Classification: -1
- Compound: "CCOCCCNC(=O)Cn1cc2c(n1)CCCC2"
  Classification: -1
- Compound: "C=C(C)CC1N(c2cccc(OC)c2)C(=O)C2C(C(=O)O)C3C=CC21O3 (stereo unspecified)"
  Classification: -1
- Compound: "CCCc1ccc(Oc2c(-c3ccc(O)c(C)c3O)n[nH]c2C)cc1"
  Classification: 1
- Compound: "COc1ccc(OC)c(NC(=O)NC2(C(F)(F)F)Oc3ccccc3O2)c1"
  Classification: 1
- Compound: "O=C1CCC(=O)N1c1ccc(CSc2nc3ccccc3[nH]2)cc1"
  Classification: -1
- Compound: "CC(C)c1cc(=O)oc2c3c4c(cc12)CCCN4CCC3"
  Classification: 1
- Compound: "CC(=O)C(Sc1ccc2nnc(-c3ccc(F)cc3)n2n1)C(C)=O"
  Classification: 1
- Compound: "CCN1CCCC1CNC(=O)Cn1cnc2sc(C)c(S(=O)(=O)N3CCC(C)CC3)c2c1=O (stereo unspecified)"
  Classification: 1
- Compound: "O=C(NCN1CCc2ccccc2C1)c1cnccn1"
  Classification: -1
- Compound: "CSc1nnc(Cn2c(=O)sc3ccccc32)n1CCc1ccccc1"
  Classification: 1

----------
experiment: growth inhibitors of H69AR lung tumor, primary screen, human, duplicate replicates (AID 580); settings: H69AR lung tumor cells viability, ATP luminescence, 72 h; at 10 µM; stronger effect = lower value;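 note: 100% = mean luminescence of untreated wells and 0% = no signal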
Documented viability across a set of molecules
Measurement Type: viability (%)

- Molecule: "CCOC(=O)N1CCN(C(=O)c2ccc3c(=O)n(CCc4ccccc4)c(=O)[nH]c3c2)CC1"
  Unit Text: "%"
  Result: 85.6
- Molecule: "Cc1ccc(S(=O)(=O)CCc2nnc(NC(=O)c3cnccn3)s2)cc1"
  Unit Text: "%"
  Result: 99.6
- Molecule: "Cc1cccc(OCCCC(=O)O)c1"
  Unit Text: "%"
  Result: 89.4
- Molecule: "CCOc1cccc(-c2nnc3sc(COc4ccc(OC)cc4)nn23)c1"
  Unit Text: "%"
  Result: 85.5
- Molecule: "c1ccc2c(CC3=NCCN3)cccc2c1"
  Unit Text: "%"
  Result: 93.8
- Molecule: "O=C(N1CCOCC1)N1CCC(NC(=O)C23CC4CC(CC(C4)C2)C3)CC1"
  Unit Text: "%"
  Result: 98.8
- Molecule: "COCCNC(=O)CSc1nc(-c2ccc(OC)c(OC)c2)cc(C(F)(F)F)n1"
  Unit Text: "%"
  Result: 89
- Molecule: "CCOc1ccc(NC(=O)c2ccc3c(c2)N(Cc2ccc(F)cc2)C(=O)CS3=O)cc1 (stereo not drawn)"
  Unit Text: "%"
  Result: 90
- Molecule: "COc1ccc(NC(=O)CS(=O)CC(=O)Nc2cc(Cl)ccc2OC)cc1 (stereo not drawn)"
  Unit Text: "%"
  Result: 90.9
- Molecule: "CC1(C)CC(=O)c2cnc(NCc3ccco3)nc2C1"
  Unit Text: "%"
  Result: 96.2
- Molecule: "CCOC(=O)N1CCC(N2C(=O)c3ccc(C(=O)NCc4ccco4)cc3C2=O)CC1"
  Unit Text: "%"
  Result: 85.9
- Molecule: "CC(C)CCn1c(N)c(S(=O)(=O)c2cccs2)c2nc3ccccc3nc21"
  Unit Text: "%"
  Result: 42.9
- Molecule: "CC1(C)NC(=O)N(CC(O)CN(Cc2ccccc2)Cc2ccccc2)C1=O (stereo not drawn)"
  Unit Text: "%"
  Result: 92.6
- Molecule: "COc1ccc(C(C)=O)c(OC(=O)c2ccc(OC)c(OC)c2)c1"
  Unit Text: "%"
  Result: 98.6
- Molecule: "O=C(O)C1CC(=O)N(Cc2ccccc2)C1 (stereo not drawn)"
  Unit Text: "%"
  Result: 90.2
- Molecule: "O=C(CNc1ccc(Oc2ccccc2)cc1)N1CCOCC1"
  Unit Text: "%"
  Result: 105
- Molecule: "CCOc1ccccc1NC(=O)N1C2CCCC1CC(NC(=O)C1CC1)C2 (stereo not drawn)"
  Unit Text: "%"
  Result: 96.8
- Molecule: "O=c1ccc(S(=O)(=O)N2CCC(Cc3ccccc3)CC2)c[nH]1"
  Unit Text: "%"
  Result: 95.3
- Molecule: "COc1ccccc1N1C(=O)c2ccccc2NC1c1ccncc1 (stereo not drawn)"
  Unit Text: "%"
  Result: 104
- Molecule: "O=S(=O)(Nc1ccn(-c2ccccc2)n1)c1ccc(Br)cc1"
  Unit Text: "%"
  Result: 87.5
- Molecule: "COc1ccc(/C(O)=C2/C(=O)C(=O)N(CCCN(C)C)C2c2ccc(Cl)cc2)cc1OC (stereo not drawn)"
  Unit Text: "%"
  Result: 103
- Molecule: "COc1cccc(OC)c1C(=O)N1CCN(S(=O)(=O)c2ccccc2)CC1"
  Unit Text: "%"
  Result: 97.2
- Molecule: "O=C1CC(Cc2ccccc2)C(=O)N1CCCn1ccnc1 (stereo not drawn)"
  Unit Text: "%"
  Result: 92.2
